target: Receptor-interacting serine/threonine-protein kinase 2 (Homo sapiens) (UniProt O43353); conditions: at 1 µM
Sequence (O43353 whole entry): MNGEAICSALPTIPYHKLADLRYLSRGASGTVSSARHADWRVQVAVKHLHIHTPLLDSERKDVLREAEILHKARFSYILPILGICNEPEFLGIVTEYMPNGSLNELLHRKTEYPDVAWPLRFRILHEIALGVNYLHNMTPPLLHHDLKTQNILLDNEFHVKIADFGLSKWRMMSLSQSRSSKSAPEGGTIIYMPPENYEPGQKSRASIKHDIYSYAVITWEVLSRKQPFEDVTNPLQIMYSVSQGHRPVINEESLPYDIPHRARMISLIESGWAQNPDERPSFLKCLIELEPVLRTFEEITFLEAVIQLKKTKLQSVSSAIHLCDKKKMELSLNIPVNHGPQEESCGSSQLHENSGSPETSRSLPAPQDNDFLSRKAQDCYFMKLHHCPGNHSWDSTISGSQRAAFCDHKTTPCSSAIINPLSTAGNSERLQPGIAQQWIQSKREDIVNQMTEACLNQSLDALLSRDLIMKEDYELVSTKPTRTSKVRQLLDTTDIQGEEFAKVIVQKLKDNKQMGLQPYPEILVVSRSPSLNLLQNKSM
Description: Millipore: Percentage of residual kinase activity of RIPK2 at 1uM relative to control. Control inhibitor: Phosphoric acid* at 0.3uM. Buffer: 8 mM MOPS pH 7.0, 0.2 mM EDTA
Consider the following compounds; for each one, report its residual activity.
Reply with the number and its unit after it.

Hi! Can you tell me residual activity for each of these compounds?
1. Oc1c2ccccc2c2c3c(cccc13)N=N2
2. CO[C@@H]1[C@H](N(C)C(=O)c2ccccc2)C[C@H]2O[C@]1(C)n1c3ccccc3c3c4c(c5c6ccccc6n2c5c31)C(=O)NC4
3. CC(C)n1cnc2c(NCc3ccccc3)nc(NCCCO)nc21
4. O=C1NC(=O)c2c1c1c3ccccc3[nH]c1c1[nH]c3cc(Br)ccc3c21
5. Oc1ccc(-c2nc(-c3ccc(F)cc3)c(-c3ccncc3)[nH]2)cc1
6. O=C(Nc1cccc(Nc2cc(Nc3cccc(C(F)(F)F)c3)ncn2)c1)C1CC1

Output:
["70%", "88%", "69%", "92%", "24%", "53%"]

# per-item lookup of residual activity; items listed below
1. O=C1NC(=O)c2cc(Nc3ccc(F)cc3)c(Nc3ccc(F)cc3)cc21
2. COc1cc2ncnc(Nc3ccc(NC(=O)c4ccccc4)cc3)c2cc1OC
3. COc1ccc(S(=O)(=O)N(CCO)c2ccccc2CN(C)C/C=C/c2ccc(Cl)cc2)cc1
4. CC#CC(=O)Nc1cc2c(Nc3ccc(F)c(Cl)c3)ncnc2cn1
5. COc1cccc(-c2cc(=O)c3ccccc3o2)c1N

Output:
["76%", "110%", "92%", "82%", "92%"]

====

target: Tyrosine-protein kinase Lck (Homo sapiens) (UniProt P06239); settings: at 1 µM
Sequence (P06239 2-509 limits assumed): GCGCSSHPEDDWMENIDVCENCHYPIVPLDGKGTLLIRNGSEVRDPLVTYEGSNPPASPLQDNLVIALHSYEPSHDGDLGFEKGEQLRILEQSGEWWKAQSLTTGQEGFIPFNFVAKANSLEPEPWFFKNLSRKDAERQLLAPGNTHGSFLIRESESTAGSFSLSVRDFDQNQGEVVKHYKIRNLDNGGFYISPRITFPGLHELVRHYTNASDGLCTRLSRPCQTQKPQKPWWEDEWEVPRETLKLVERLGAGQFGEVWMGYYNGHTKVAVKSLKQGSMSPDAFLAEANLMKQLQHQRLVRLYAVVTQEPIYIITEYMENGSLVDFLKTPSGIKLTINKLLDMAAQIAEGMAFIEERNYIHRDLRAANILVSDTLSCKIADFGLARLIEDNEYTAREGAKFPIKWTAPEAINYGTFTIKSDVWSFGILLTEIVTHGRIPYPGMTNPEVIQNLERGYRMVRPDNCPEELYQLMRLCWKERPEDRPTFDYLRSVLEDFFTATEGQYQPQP
What residual activity was measured for each of the following?
Answer with the number, then the unit.

Here's what some known entries look like.
| compound-smiles | test-result |
| --- | --- |
| CN(C)CCCn1cc(C2=C(c3c[nH]c4ccccc34)C(=O)NC2=O)c2ccccc21 | 80% |
| c1ccc(-c2n[nH]cc2-c2ccnc3ccccc23)nc1 | 91% |

Input: Provide measured residual activity value, entry: `Oc1n[nH]c2nnc(-c3c(-c4ccccc4)nn4ccccc34)cc12`
Output: 90%

====

biological target: Receptor tyrosine-protein kinase erbB-4 (Homo sapiens); details: at 1 µM
Can you tell me residual activity for the items I'm about to list?
Numbers only, in %.

Example entries begin here.
| compound-smiles | system | residual activity / % |
| --- | --- | --- |
| COc1cccc(-c2cc(=O)c3ccccc3o2)c1N | Receptor tyrosine-protein kinase erbB-4 (Homo sapiens) | 90 |
| COc1cc2ncc(-c3ccccc3)nc2cc1OC | Receptor tyrosine-protein kinase erbB-4 (Homo sapiens) | 88 |

# ---- query compound ----
Input: Provide measured residual activity value, entry: `c1ccc2c(-c3ccncc3)c[nH]c2c1`
Output: 88

====

target: Tyrosine-protein kinase Fes/Fps (Homo sapiens) (UniProt P07332); details: at 1 µM
Sequence (P07332 whole entry): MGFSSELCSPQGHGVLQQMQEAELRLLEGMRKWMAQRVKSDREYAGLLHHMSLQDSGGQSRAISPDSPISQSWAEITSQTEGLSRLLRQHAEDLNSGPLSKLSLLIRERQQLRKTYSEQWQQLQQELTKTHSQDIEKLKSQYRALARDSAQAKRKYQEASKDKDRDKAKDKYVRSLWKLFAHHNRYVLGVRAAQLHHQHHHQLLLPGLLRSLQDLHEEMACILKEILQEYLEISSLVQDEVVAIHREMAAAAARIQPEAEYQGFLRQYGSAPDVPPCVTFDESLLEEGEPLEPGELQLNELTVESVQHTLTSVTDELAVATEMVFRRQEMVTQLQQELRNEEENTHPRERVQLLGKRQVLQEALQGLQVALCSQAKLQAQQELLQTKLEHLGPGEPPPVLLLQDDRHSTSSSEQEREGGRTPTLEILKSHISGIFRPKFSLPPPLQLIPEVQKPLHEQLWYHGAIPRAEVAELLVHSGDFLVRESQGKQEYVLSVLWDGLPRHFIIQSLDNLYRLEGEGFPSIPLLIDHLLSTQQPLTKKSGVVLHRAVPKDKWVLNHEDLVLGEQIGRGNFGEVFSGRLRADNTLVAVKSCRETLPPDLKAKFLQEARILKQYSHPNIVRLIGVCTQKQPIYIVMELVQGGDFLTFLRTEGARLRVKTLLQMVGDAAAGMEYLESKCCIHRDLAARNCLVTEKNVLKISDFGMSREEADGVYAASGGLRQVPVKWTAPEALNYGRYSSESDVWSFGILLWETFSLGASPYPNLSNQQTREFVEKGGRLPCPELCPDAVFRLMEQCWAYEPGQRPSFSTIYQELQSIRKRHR
Kindly state residual activity for each of the entries shown.
Answers are plain numbers, in %.

Completed entries (count: 6):
| compound | residual activity, % |
| --- | --- |
| COc1cc2ncnc(Nc3ccc(O)c(Br)c3)c2cc1OC | 95 |
| CC(C)n1cnc2c(NCc3ccccc3)nc(NCCCO)nc21 | 94 |
| O=C1NC(=O)/C(=C/c2ccc3c(c2)OC(F)(F)O3)S1 | 128 |
| O=C(Nc1cccc(Nc2cc(Nc3cccc(C(F)(F)F)c3)ncn2)c1)C1CC1 | 113 |
| O=C1Nc2ccccc2/C1=C1/Nc2ccccc2/C1=N\OCCC(O)CO (configuration not stated) | 71 |
| CCN(CC)C(=O)c1ccc(Nc2nc(OCC3CCCCC3)c3nc[nH]c3n2)cc1 | 61 |

Attention now turns to another entry.
Input: Note residual activity for the compound shown: `O=C1c2ccccc2-[n+]2ccc3c([nH]c4ccccc43)c21`
Output: 89
